Origin of measurements: patent US6297237A

Reported Heart AChE maximum % inhibition values follow for various compounds
# Test system: heart AChE
# ASSAY OVERVIEW: Inhibition kinetics of heart AChE after oral administration (Table 2)
# Assay type: in vivo
# PARTICULARS: p.o. at 1/7 LD50: CHF 2060 10, CHF 2819 1.3, CHF 2822 2.5, CHF 2957 9 mg/kg; 1, 4, 16 h; rat
Counter-ions that a name gives are not always drawn.

Some entries whose results are on file:
In [3]: df
Out[3]:
                                   compound  result
0  CCCCCCCNC(=O)Oc1ccc2c(c1)[C@]1(C)CCN(C)OC1N2C (stereo partly shown) [CHF 2060, hydrochloride, reference compound]     41%
1  CCc1ccccc1NC(=O)Oc1ccc2c(c1)[C@]1(C)CCN(C)OC1N2C (stereo partly shown) [CHF 2819, hydrochloride]      4%
2  Cc1ccccc1NC(=O)Oc1ccc2c(c1)[C@]1(C)CCN(C)OC1N2C (stereo partly shown) [CHF 2822, hydrochloride]      9%

Okay, now this compound:
# input Query (compound): Cc1cccc(NC(=O)Oc2ccc3c(c2)[C@]2(C)CCN(C)OC2N3C)c1 (stereo partly shown) [CHF 2957, hydrochloride] ; field requested: Heart AChE maximum % inhibition
# output 13%

* * *

# SYSTEM TESTED: erythrocyte AChE (Homo sapiens, UniProt P22303)
# Construct: from tissue
# Sequence (P22303 other isoform, or with tags, fused parts or gaps): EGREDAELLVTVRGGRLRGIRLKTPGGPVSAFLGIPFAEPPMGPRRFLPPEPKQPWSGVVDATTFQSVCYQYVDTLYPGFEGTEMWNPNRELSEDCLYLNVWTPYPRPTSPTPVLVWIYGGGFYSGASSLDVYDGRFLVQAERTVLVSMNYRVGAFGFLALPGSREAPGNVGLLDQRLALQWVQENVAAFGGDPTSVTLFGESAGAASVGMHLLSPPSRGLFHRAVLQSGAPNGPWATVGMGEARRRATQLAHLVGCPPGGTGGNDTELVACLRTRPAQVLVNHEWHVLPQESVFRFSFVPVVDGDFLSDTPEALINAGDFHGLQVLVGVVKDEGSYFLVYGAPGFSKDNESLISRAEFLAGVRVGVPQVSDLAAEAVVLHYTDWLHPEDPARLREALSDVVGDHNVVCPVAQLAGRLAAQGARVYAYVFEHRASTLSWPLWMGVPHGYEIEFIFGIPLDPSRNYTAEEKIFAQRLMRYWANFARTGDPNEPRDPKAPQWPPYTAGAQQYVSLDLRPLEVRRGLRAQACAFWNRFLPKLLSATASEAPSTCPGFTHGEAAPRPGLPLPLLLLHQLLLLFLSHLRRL
# ASSAY OVERVIEW: In vitro inhibition of erythrocyte AChE (Table 3)
# Type: biochemical
# PARTICULARS: selectivity index (IC50 BuChE/IC50 AChE)
Structures can show the parent of a compound that is named as a salt.
MEASURED PROPERTY: S.I.
Give your answer as a number; write no unit.

Some entries whose results are on file:
>>> df
                                   molecule                             system_tested  quantitative_result
0  CNC(=O)Oc1ccc2c(c1)[C@]1(C)CCN(C)[C@@H]1N2C [Physostigmine, reference compound]  erythrocyte AChE (Homo sapiens, UniProt P22303)                 0.27
1  CCc1ccccc1NC(=O)Oc1ccc2c(c1)[C@]1(C)CCN(C)OC1N2C (stereo partly drawn) [CHF 2819, hydrochloride]  erythrocyte AChE (Homo sapiens, UniProt P22303)                  115
2  Cc1cccc(NC(=O)Oc2ccc3c(c2)[C@]2(C)CCN(C)OC2N3C)c1 (stereo partly drawn) [CHF 2957, hydrochloride]  erythrocyte AChE (Homo sapiens, UniProt P22303)                   32
3  CCCCCCCNC(=O)Oc1ccc2c(c1)[C@]1(C)CCN(C)OC1N2C (stereo partly drawn) [CHF 2060, hydrochloride, reference compound]  erythrocyte AChE (Homo sapiens, UniProt P22303)                0.005
4  Cc1ccccc1NC(=O)Oc1ccc2c(c1)[C@]1(C)CCN(C)OC1N2C (stereo partly drawn) [CHF 2822, hydrochloride]  erythrocyte AChE (Homo sapiens, UniProt P22303)                 0.09

# input What measured S.I. is associated with CCN(C)C(=O)Oc1cccc([C@H](C)N(C)C)c1 [SDZ-ENA 713, reference compound] on erythrocyte AChE (Homo sapiens, UniProt P22303)?
# output 0.007
